Data provenance is patent US8642612B2.

The entries below come with measured IC50 values attached.
Molecular target: human α4β2 nAChRs (Homo sapiens, UniProt P17787+P43681)
Construct: expressed in transfected cells; the efflux text says only stably transfected cells
Sequence (P43681 29-627 limits assumed): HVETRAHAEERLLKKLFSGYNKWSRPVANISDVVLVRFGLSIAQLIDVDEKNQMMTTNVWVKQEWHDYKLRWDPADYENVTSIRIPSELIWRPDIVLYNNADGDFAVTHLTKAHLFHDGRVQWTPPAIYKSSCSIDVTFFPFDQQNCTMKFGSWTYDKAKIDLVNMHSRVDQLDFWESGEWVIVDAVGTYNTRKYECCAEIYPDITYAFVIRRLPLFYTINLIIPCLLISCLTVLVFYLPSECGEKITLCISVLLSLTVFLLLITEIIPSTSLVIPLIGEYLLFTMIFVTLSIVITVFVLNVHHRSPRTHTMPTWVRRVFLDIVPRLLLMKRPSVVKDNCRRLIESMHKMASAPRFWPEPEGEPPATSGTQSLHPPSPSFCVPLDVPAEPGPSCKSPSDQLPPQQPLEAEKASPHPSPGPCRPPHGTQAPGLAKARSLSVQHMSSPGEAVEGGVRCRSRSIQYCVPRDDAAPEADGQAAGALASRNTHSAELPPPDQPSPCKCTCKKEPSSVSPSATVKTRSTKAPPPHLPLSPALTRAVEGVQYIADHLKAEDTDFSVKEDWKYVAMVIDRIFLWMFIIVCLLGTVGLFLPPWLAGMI
Sequence (P17787 26-502): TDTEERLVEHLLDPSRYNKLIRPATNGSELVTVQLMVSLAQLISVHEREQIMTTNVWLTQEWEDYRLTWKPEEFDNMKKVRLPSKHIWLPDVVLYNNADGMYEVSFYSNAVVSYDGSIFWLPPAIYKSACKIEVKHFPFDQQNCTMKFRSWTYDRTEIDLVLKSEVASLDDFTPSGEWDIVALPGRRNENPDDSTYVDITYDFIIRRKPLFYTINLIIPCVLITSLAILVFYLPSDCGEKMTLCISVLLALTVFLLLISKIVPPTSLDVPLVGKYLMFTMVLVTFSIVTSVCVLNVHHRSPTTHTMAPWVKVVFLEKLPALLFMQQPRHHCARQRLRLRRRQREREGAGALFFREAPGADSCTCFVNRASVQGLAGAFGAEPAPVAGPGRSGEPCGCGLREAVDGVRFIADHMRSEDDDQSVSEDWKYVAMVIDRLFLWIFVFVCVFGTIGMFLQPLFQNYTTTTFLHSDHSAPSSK
Assay: Inhibition of nicotine-stimulated 86Rb+ efflux, cells expressing human α4β2 nAChRs
Assay type: cell-based
Conditions: Desensitization Potency (IC50(D,10 min), nM) α4β2, 10 min pretreatment before nicotine
Write it as a number; the unit nM goes unstated.

CN1CCC[C@H]1COc1cncc(C#CCO)c1: 180
FCCCCC#Cc1cncc(OC[C@@H]2CCCN2)c1: 120
CN1CCC[C@H]1COc1cncc(CCCCCCO)c1: 1000
C#Cc1cncc(OC[C@@H]2CCCN2C)c1: 50
CN1CCC[C@H]1COc1cncc(C#CC(C)(C)O)c1: 890

We next turn to a different compound, shown below.
Short answer for OCCCCC#Cc1cncc(OC[C@@H]2CCN2)c1 : IC50 was 26
